The reported measurements were obtained from patent US11345669B2.

System: IL1-β release upon NLRP3 activation in peripheral blood mononuclear cells (PBMC)
Assay: PBMC IC50 Determination Assay
Type: cell-based
Settings: Homo sapiens; PBMC from buffy coats, LPS 3 h, compound 30 min, then ATP (5 mM) or nigericin (10 μM) for 1 h; IL-1β in media by ELISA; read-out: PBMCs, IC50
Protocol: PBMC IC50 Determination Assay The compounds of the present disclosure were tested for their inhibitory activity against IL1-β release upon NLRP3 activation in peripheral blood mononuclear cells (PBMC). […] The release of IL-1β into the media was determined by a quantitative detection of IL-1β in 5 the media using an IL-1β enzyme-linked immunosorbent assay (ELISA) Ready-SET-Go!, eBioscience cat. […]
The label rule met is reserved for IC50 strictly under 1000 nM; rule not met covers values equal to or above it.

1) O=C(Nc1c2c(cc3c1CCC3)CCC2)N[C@H](Cc1cccnc1)C(=O)OC1CCC1: rule met
2) COC(=O)[C@@H](Cc1ccccn1)NC(=O)Nc1c2c(cc3c1CCC3)CCC2: rule not met
3) COC(=O)[C@@H](CO)NC(=O)Nc1c2c(cc3c1CCC3)CCC2: rule not met
4) O=C(Nc1c2c(cc3c1CCC3)CCC2)N[C@H](Cc1cccc(-c2cc[nH]n2)c1)C(=O)O: rule met
5) COC(=O)C(Cc1cccc(-c2cc[nH]n2)c1)NC(=O)Nc1c2c(cc3c1CCC3)CCC2 (centres unmarked): rule met
6) COC(=O)C(Cc1cccc(CO)c1)NC(=O)Nc1c2c(cc3c1CCC3)CCC2 (centres unmarked): rule not met
7) COC(=O)C(Cc1cccc(C(C)=O)c1)NC(=O)Nc1c2c(cc3c1CCC3)CCC2 (centres unmarked): rule met
8) O=C(Nc1c2c(cc3c1CCC3)CCC2)N[C@H](Cc1cccnc1)C(=O)O: rule not met
